# tgt: radiolabeled Rolipram of rat brain homogenates
# procedure.text: displacement of radiolabeled Rolipram in rat brain homogenates, in vitro (Eur. J. Pharmacol. 127, 105-115 (1986))
# recorded.conditions: 3H-rolipram tracer, IC50 converted: Ki = IC50/[1+(L/KD)]
result.type: log10(Ki) (log10 of the value in nM)
// units: nM (pre-log); metric: Ki; scale: log10

| compound | result.type | test.result |
| --- | --- | --- |
| COc1ccc([C@@]2(C)CCC(=O)O2)cc1OC1CCC1 [cyclobutyl, (R)-(+)-enantiomer] | log10(Ki) | 0.28 |
| COc1ccc([C@]2(C)CCC(=O)O2)cc1OCC(C)C [isobutyl, (S)-(-)-enantiomer] | log10(Ki) | -0.60 |
| COc1ccc([C@]2(C)CCC(=O)O2)cc1OC1CCCC1 [cyclopentyl, (S)-(-)-enantiomer] | log10(Ki) | -0.55 |
| COc1ccc([C@@]2(C)CCC(=O)O2)cc1OCC1CC1 [cyclopropylmethyl, (R)-(+)-enantiomer] | log10(Ki) | 0.34 |
| COc1ccc([C@]2(C)CCC(=O)O2)cc1OC1CCC1 [cyclobutyl, (S)-(-)-enantiomer] | log10(Ki) | -0.70 |

stdin: Name the recorded log10(Ki) for COc1ccc(C2(C)CCC(=O)O2)cc1OCC(C)C (racemic) [isobutyl, Racemate] .
stdout: -0.32

stdin: Name the recorded log10(Ki) for COc1ccc(C2(C)CCC(=O)O2)cc1OCC1CC1 (racemic) [cyclopropylmethyl, Racemate] .
stdout: -0.68

stdin: Name the recorded log10(Ki) for COc1ccc(C2(C)CCC(=O)O2)cc1OC1CCCC1 (racemic) [cyclopentyl, Racemate] .
stdout: -0.30

---

# tgt: radiolabeled Rolipram of rat brain homogenates
# procedure.text: displacement of radiolabeled Rolipram in rat brain homogenates, in vitro (Eur. J. Pharmacol. 127, 105-115 (1986))
# recorded.conditions: 3H-rolipram tracer, IC50 converted: Ki = IC50/[1+(L/KD)]
Hi! Could you tag entries with Ki below 2000 pM as class 1, and those at or above as class 0? Much appreciated.

Reference set (3 entries):
| molecule | classification |
| --- | --- |
| COc1ccc([C@@]2(C)CCC(=O)O2)cc1OCC(C)C [isobutyl, (R)-(+)-enantiomer] | class 0 |
| COc1ccc([C@@]2(C)CCC(=O)O2)cc1OC1CCCC1 [cyclopentyl, (R)-(+)-enantiomer] | class 0 |
| COc1ccc([C@]2(C)CCC(=O)O2)cc1OCC1CC1 [cyclopropylmethyl, (S)-(-)-enantiomer] | class 1 |

stdin: Take the molecule CCCOc1cc(C2(C)CCC(=O)O2)ccc1OC (racemic) [propyl, Racemate] and say whether its Ki is less than 2000 pM.
stdout: class 1

stdin: Take the molecule CCCOc1cc([C@]2(C)CCC(=O)O2)ccc1OC [propyl, (S)-(-)-enantiomer] and say whether its Ki is less than 2000 pM.
stdout: class 1

stdin: Take the molecule COc1ccc(C2(C)CCC(=O)O2)cc1OC1CCC1 (racemic) [cyclobutyl, Racemate] and say whether its Ki is less than 2000 pM.
stdout: class 1

stdin: Take the molecule CCCOc1cc([C@@]2(C)CCC(=O)O2)ccc1OC [propyl, (R)-(+)-enantiomer] and say whether its Ki is less than 2000 pM.
stdout: class 0
